Listed here: items and their measured C. V. (%) CGM.
system: Botrytis cinerae; experiment: Fungicidal activity against cucumber gray mold rot (CGM) disease; type: in vivo; details: 50 ppm, control value
Please provide the amount together with its unit, number first.

For orientation, consider the following solved cases.
> print(dat)
                                   molecule  quantity.name  reported
1  CCOc1ccc(C(=C(F)Oc2cccc(OCc3ccccc3C(=NOC)C(=O)OC)c2)C(F)(F)F)cc1 [Compound 79]  C. V. (%) CGM        7%
2  CNC(=O)C(=COC)c1ccccc1COc1cccc(OC(F)=C(c2ccc(OC)cc2)C(F)(F)F)c1 [Compound 75]  C. V. (%) CGM        0%
3  CON=C(C(=O)OC)c1ccccc1COc1cccc(OC(F)=Cc2cc(C)cc(C)c2)c1 [Compound 19]  C. V. (%) CGM        0%

Could you tell me which C. V. (%) CGM is on file for CNC(=O)C(=NOC)c1ccccc1COc1cccc(OC(F)=C(c2cccc(Cl)c2)C(F)(F)F)c1 [Compound 87] ? 0%

Could you tell me which C. V. (%) CGM is on file for CNC(=O)C(=NOC)c1ccccc1COc1cccc(OC(F)=C(c2cccc(OC)c2)C(F)(F)F)c1 [Compound 74] ? 52%

Could you tell me which C. V. (%) CGM is on file for CNC(=O)/C(=N/OC)c1ccccc1COc1cccc(OC(F)=C(c2cc(C)cc(C)c2)C(F)(F)F)c1 [Compound 70] ? 0%

Could you tell me which C. V. (%) CGM is on file for COC(=O)C(=CSC)c1ccccc1COc1cccc(OC(F)=Cc2cccc(OC)c2)c1 [Compound 28] ? 21%

Could you tell me which C. V. (%) CGM is on file for CO/C=C(/C(=O)OC)c1ccccc1COc1cccc(OC(F)=C(c2cc(C)cc(C)c2)C(F)(F)F)c1 [Compound 67] ? 16%

Could you tell me which C. V. (%) CGM is on file for CNC(=O)C(=NOC)c1ccccc1COc1cccc(OC(F)=C(c2ccc(Cl)cc2)C(F)(F)F)c1 [Compound 91] ? 17%
